Where these numbers come from: paper PMC7936271

- target under test: BRDT-BD2
Hi! Just check whether IC50 is below 0.05 µM. Below gives Fulfilled, equal or above gives Not fulfilled.

{"query smiles": "COc1ccc(NC(=O)c2ccc3c(c2)c(-c2cc4ccccc4n2C)nn3C)c(Cl)c1", "group label": "Not fulfilled"}
{"query smiles": "CC(=O)Nc1cc(NC(=O)c2ccc3c(c2)c(-c2ccc(N)nc2)nn3C(C)C)ccc1C", "group label": "Not fulfilled"}
{"query smiles": "CNC(=O)c1ccc(C(=O)Nc2cc(NC(=O)c3ccc4c(c3)c(-c3ccc(N)cc3C)nn4C)ccc2OC)cc1", "group label": "Fulfilled"}
{"query smiles": "COc1ccc(NC(=O)c2ccc3c(c2)c(-c2cc4ccccc4n2C)nn3C)c(C)c1", "group label": "Not fulfilled"}
{"query smiles": "COc1ccc(NC(=O)c2ccc3c(c2)c(-c2cc4ccccc4n2C)nn3C)cc1F", "group label": "Not fulfilled"}
{"query smiles": "COc1ccc(NC(=O)c2ccc3c(c2)c(-c2cc4ccccc4n2C)nn3C)cc1C", "group label": "Not fulfilled"}
{"query smiles": "CNC(=O)c1ccc(C(=O)Nc2cc(NC(=O)c3ccc4c(c3)c(-c3ccccc3C)nn4C)ccc2OC)cc1", "group label": "Not fulfilled"}
{"query smiles": "CNC(=O)c1cc(NC(=O)c2ccc3c(c2)c(-c2ccc(N)cc2C)nn3C)ccc1C", "group label": "Fulfilled"}
{"query smiles": "CC(=O)Nc1cccc(NC(=O)c2ccc3c(c2)c(-c2ccc(N)cc2C)nn3C)c1", "group label": "Fulfilled"}
{"query smiles": "CNC(=O)c1ccc(C(=O)Nc2cc(NC(=O)c3ccc4c(c3)c(-c3cc5ccccc5n3C)nn4C)ccc2C)cc1", "group label": "Fulfilled"}
{"query smiles": "Cc1cc(N)ccc1-c1nn(C)c2ccc(C(=O)Nc3ccccc3)cc12", "group label": "Not fulfilled"}
{"query smiles": "CNC(=O)c1ccc(C(=O)Nc2cc(NC(=O)c3ccc4c(c3)c(-c3ccc(N)nc3C)nn4C)ccc2C)cc1", "group label": "Not fulfilled"}
{"query smiles": "CNC(=O)c1ccc(C(=O)Nc2cc(NC(=O)c3ccc4c(c3)c(-c3cnc(N)nc3)nn4C)ccc2C)cc1", "group label": "Not fulfilled"}
{"query smiles": "COc1ccc(NC(=O)c2ccc3c(c2)c(-c2ccc(N)cc2C)nn3C)cc1NC(=O)c1ccccc1", "group label": "Fulfilled"}
{"query smiles": "CNC(=O)c1ccc(C(=O)Nc2cc(NC(=O)c3ccc4c(c3)c(-c3ccc(C)cc3C)nn4C)ccc2OC)cc1", "group label": "Fulfilled"}
{"query smiles": "COc1ccc(NC(=O)c2ccc3c(c2)c(-c2cc4ccccc4n2C)nn3C)c(OC)c1", "group label": "Not fulfilled"}
{"query smiles": "CNC(=O)c1ccc(C(=O)Nc2cc(NC(=O)c3ccc4c(c3)c(-c3ccc(OC)cc3)nn4C)ccc2C)cc1", "group label": "Not fulfilled"}
{"query smiles": "CNC(=O)c1ccc(C(=O)Nc2cc(NC(=O)c3ccc4c(c3)c(-c3cc5ccccc5n3C)nn4C)ccc2OC)cc1", "group label": "Fulfilled"}
{"query smiles": "CNC(=O)c1ccc(C(=O)Nc2cc(NC(=O)c3ccc4c(c3)c(-c3ccc(N)nc3)nn4C)ccc2C)cc1", "group label": "Fulfilled"}
{"query smiles": "CC(=O)Nc1cc(NC(=O)c2ccc3c(c2)c(-c2ccc(N)cc2C)nn3C)ccc1C", "group label": "Fulfilled"}
{"query smiles": "COc1ccc(N(C)C(=O)c2ccc3c(c2)c(-c2ccc(N)cc2C)nn3C)cc1", "group label": "Not fulfilled"}
{"query smiles": "CCn1nc(-c2ccc(N)nc2)c2cc(C(=O)Nc3ccc(C)c(NC(C)=O)c3)ccc21", "group label": "Not fulfilled"}
{"query smiles": "CNC(=O)c1ccc(C(=O)Nc2cc(NC(=O)c3ccc4c(c3)c(-c3ccncc3)nn4C)ccc2C)cc1", "group label": "Not fulfilled"}
{"query smiles": "CNC(=O)c1ccc(C(=O)Nc2cc(NC(=O)c3ccc4c(c3)c(-c3ccc(N)cc3)nn4C)ccc2OC)cc1", "group label": "Fulfilled"}
{"query smiles": "COc1ccc(NC(=O)c2ccc3c(c2)c(-c2cc4ccccc4n2C)nn3C)cc1", "group label": "Not fulfilled"}
{"query smiles": "COc1ccc(NC(=O)c2ccc3c(c2)c(-c2ccc(N)cc2C)nn3C)cc1", "group label": "Not fulfilled"}
{"query smiles": "COc1ccc(NC(=O)c2ccc3c(c2)c(-c2cc4ccccc4n2C)nn3C)cc1Cl", "group label": "Not fulfilled"}
{"query smiles": "CNC(=O)c1ccc(C(=O)Nc2cc(NC(=O)c3ccc4c(c3)c(-c3cnc(N)cc3C)nn4C)ccc2C)cc1", "group label": "Fulfilled"}
{"query smiles": "CC(=O)Nc1cc(NC(=O)c2ccc3c(c2)c(-c2cnc(N)cc2C)nn3C)ccc1C", "group label": "Not fulfilled"}
{"query smiles": "COc1ccc(NC(=O)c2ccc3c(c2)c(-c2cc4ccccc4n2C)nn3C)cc1OC", "group label": "Not fulfilled"}
{"query smiles": "COc1ccc(NC(=O)c2ccc3c(c2)c(-c2cc4ccccc4n2C)nn3C)c(F)c1", "group label": "Not fulfilled"}
{"query smiles": "CC(=O)Nc1cc(NC(=O)c2ccc3c(c2)c(-c2ccc(N)nc2)nn3C)ccc1C", "group label": "Fulfilled"}
{"query smiles": "COc1ccc(NC(=O)c2ccc3nn(C)c(-c4ccc(N)cc4C)c3c2)cc1", "group label": "Not fulfilled"}
